Target or test system: GSK3β (Homo sapiens, UniProt P49841)
Sequence (P49841 whole entry, species assumed): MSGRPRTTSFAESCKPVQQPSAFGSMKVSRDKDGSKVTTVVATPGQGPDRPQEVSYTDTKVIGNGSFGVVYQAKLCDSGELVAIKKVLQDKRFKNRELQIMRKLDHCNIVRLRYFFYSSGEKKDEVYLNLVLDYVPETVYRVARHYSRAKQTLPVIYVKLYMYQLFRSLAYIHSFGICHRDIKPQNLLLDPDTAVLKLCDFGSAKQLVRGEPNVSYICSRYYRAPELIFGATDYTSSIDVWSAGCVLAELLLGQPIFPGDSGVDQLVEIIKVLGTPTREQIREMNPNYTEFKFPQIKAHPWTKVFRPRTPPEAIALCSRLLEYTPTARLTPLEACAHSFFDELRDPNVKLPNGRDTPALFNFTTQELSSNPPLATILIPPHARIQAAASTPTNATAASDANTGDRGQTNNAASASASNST
Experiment description: GSK3β ATP depletion assay
Assay type: biochemical
Run conditions: read-out: GSK3b IC50
List of IC50 values.
Reply with just the number (in µM).

INPUT: Tell me reported IC50 for Nc1cnc(-c2c(F)cccc2F)nc1C(=O)Nc1cnccc1[C@H]1C[C@@H](O)[C@@]2(O)CCC[C@H]2O1 [Example 180] , tested with GSK3β (Homo sapiens, UniProt P49841).
OUTPUT: 0.101

Others:
INPUT: Any idea what IC50 came out for C[C@H]1O[C@@H](c2ccncc2NC(=O)c2csc(-c3c(F)cccc3F)n2)C[C@@H](O)[C@@H]1O (stereo in doubt) [Example 136] on GSK3β (Homo sapiens, UniProt P49841)?
OUTPUT: 0.165

INPUT: Same thing, different compound: O=C(Nc1cnccc1[C@H]1C[C@@H](O)CCO1)c1csc(-c2c(F)cccc2F)n1 [Example 131]
OUTPUT: 0.216

INPUT: And then Nc1ncc(-c2ccccc2)nc1C(=O)Nc1cnccc1[C@@H]1C[C@H](O)[C@]2(O)CCC[C@@H]2O1 [Example 186] , what is it?
OUTPUT: 0.04

INPUT: Now try C[C@H]1C[C@@H](O)C[C@@H](c2ccncc2NC(=O)c2csc(-c3c(F)cccc3F)n2)O1 (stereo in doubt) [Example 127] .
OUTPUT: 0.025

INPUT: Same question, N#C[C@H]1OC(c2ccncc2NC(=O)c2ccc(F)c(-c3c(F)cccc3F)n2)=C[C@@H](O)[C@@H]1O [Example 21] this time
OUTPUT: 1.14

INPUT: And C=C[C@H]1OC(c2ccncc2NC(=O)c2ccc(F)c(-c3c(F)cccc3F)n2)=C[C@@H](O)[C@@H]1O [Example 44] ?
OUTPUT: 0.339

Sourced from patent US20130109682A1
